Tested on: Leucine-rich repeat serine/threonine-protein kinase 2 (Homo sapiens), Q5S007 [G2019S]
Sequence (Q5S007 whole entry G2019S): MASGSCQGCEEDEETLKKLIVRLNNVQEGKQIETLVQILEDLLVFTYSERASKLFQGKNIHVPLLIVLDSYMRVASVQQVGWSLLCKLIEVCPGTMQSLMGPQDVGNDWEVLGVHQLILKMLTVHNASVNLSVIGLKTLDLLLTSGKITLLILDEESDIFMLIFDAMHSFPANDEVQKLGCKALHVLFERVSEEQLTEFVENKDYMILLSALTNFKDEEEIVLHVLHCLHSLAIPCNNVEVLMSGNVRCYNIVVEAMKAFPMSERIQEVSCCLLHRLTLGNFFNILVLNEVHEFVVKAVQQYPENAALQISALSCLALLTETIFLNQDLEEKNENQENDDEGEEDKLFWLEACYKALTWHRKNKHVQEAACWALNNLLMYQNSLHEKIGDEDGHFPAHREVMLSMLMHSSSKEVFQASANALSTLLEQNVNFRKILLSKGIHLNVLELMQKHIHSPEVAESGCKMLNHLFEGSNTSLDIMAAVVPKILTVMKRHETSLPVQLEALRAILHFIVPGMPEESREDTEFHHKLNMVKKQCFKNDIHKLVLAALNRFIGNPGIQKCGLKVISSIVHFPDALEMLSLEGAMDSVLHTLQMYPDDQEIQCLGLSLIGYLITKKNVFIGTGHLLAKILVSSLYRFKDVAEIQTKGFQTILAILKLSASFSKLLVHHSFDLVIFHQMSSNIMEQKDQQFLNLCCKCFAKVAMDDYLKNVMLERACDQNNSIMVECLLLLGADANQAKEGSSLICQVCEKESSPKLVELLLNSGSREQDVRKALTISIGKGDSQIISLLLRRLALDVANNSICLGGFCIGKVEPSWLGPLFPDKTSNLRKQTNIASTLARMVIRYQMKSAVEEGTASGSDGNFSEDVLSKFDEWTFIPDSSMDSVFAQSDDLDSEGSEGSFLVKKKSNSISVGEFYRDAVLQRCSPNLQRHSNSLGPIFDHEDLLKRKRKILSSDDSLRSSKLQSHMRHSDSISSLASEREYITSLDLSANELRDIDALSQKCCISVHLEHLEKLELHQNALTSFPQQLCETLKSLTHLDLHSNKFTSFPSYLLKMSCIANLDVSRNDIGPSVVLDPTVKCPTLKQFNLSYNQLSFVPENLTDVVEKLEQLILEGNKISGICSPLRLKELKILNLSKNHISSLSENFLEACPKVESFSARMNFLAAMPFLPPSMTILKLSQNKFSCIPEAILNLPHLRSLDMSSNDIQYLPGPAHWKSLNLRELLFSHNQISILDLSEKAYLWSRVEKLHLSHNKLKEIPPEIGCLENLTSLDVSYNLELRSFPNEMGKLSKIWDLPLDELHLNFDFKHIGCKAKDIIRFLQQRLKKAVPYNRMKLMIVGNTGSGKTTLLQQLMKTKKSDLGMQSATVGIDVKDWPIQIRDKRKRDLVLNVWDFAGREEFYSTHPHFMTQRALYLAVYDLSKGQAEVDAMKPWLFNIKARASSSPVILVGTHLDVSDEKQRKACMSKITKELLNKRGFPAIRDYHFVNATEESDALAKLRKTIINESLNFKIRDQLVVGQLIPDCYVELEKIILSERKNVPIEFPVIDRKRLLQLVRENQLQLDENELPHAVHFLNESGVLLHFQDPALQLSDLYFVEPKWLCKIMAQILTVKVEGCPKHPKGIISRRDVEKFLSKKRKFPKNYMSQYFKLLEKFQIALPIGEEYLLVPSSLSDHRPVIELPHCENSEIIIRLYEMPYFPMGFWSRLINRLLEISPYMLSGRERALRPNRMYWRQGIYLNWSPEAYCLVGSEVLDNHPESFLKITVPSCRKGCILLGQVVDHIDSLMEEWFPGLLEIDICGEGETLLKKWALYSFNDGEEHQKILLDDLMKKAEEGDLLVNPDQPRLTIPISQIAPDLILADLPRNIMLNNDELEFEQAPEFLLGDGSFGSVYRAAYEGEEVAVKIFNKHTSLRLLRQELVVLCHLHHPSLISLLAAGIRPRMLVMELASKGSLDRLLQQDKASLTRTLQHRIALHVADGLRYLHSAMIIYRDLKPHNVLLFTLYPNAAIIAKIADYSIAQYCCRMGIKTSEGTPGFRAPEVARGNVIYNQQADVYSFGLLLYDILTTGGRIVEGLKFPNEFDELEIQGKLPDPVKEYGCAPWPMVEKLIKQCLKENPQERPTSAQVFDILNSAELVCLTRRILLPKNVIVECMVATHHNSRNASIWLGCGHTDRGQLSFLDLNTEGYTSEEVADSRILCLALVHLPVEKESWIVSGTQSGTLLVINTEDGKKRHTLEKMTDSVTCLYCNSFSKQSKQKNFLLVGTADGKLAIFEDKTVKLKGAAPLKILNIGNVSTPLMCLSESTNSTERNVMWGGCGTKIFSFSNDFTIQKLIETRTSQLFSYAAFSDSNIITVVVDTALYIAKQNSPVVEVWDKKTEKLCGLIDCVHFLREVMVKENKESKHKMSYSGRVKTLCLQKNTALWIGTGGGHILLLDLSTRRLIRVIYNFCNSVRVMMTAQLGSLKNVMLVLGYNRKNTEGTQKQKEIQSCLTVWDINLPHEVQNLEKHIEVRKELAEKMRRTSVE
Settings: at 1 µM

# compound, inhibition (%)
records = [
    ("COc1cc(C=NNc2ncnc3c2cnn3-c2ccccc2)ccc1O", 40.8),
    ("COc1cc2ncn(-c3cc(O[C@H](C)c4ccccc4Cl)c(C(N)=O)s3)c2cc1OC", 51.9),
    ("NCc1ccc(-c2nc(-c3ccc(Cl)c(O)c3)c(-c3ccncc3)[nH]2)cc1", 4.61),
    ("CCc1cccc(NC(=O)Nc2ccc(Oc3ccc4nc(NC(=O)OC)[nH]c4c3)cc2)c1", 8.2),
    ("Cc1cccc(-c2n[nH]cc2-c2ccc3ncccc3n2)n1", 10.6),
    ("COc1cccc(-n2ncc3c(N/N=C/c4cccc(F)c4)ncnc32)c1", 2.23),
    ("Cc1ccc(NC(=O)c2ccnc(N3CCCC3)c2)cc1-c1ccc(C(=O)NCC2CC2)cc1", 7.81),
    ("COc1ccc2cc(-c3c(-c4ccncc4)nc(-c4ccc([S+](C)[O-])cc4)n3C)ccc2c1 (configuration not stated)", 5.02),
    ("CS(=O)(=O)Nc1ccc(N/C=C2\\C(=O)Nc3ccccc32)cc1", 31.3),
    ("Cn1cc(C=C2C(=O)Nc3cccnc32)c2ccccc21", 55.4),
    ("Cc1nnc(-c2ccc(C)c(-c3ccc(C(=O)Nc4cccc(C#N)c4)cc3)c2)o1", 7.62),
    ("O=C1NC(=O)C(c2ccc(Cl)cc2)=C1Nc1ccc(Cl)c(C(=O)O)c1", 3.84),
    ("CCn1c(-c2nonc2N)nc2c(C#CC(C)(C)O)nc(CN3CCCC3)cc21", 3.54),
    ("CCN1CCC(CC(=O)Nc2n[nH]c3nc(-c4cccs4)c(Br)cc23)CC1", 2.44),
    ("NS(=O)(=O)c1ccc(N/N=C2\\C(=O)Nc3ccc(C(=O)NCCc4c[nH]cn4)cc32)cc1", 50),
    ("c1cnn2ncc(-c3ccnc(Nc4ccc5c(c4)OCCO5)n3)c2c1", 61.4),
    ("Nc1ncnc2occ(-c3ccc(NC(=O)Nc4cc(C(F)(F)F)cc(C(F)(F)F)c4)cc3)c12", 26.1),
    ("CCn1c(-c2nonc2N)nc2c(N3CCCC3)nccc21", 1.57),
    ("COc1ccc(-c2coc3ncnc(N)c23)cc1", 7.19),
    ("COC(=O)Nc1nc2cc(Oc3cccc(NC(=O)Nc4cc(C(F)(F)F)ccc4F)c3)ccc2[nH]1", 4.67),
    ("COc1cc2c(cc1Nc1nc(N3CCc4ccccc43)c3cc[nH]c3n1)N(C(=O)CN(C)C)CC2", 57.1),
    ("CN1CCC(C(=O)Nc2n[nH]c3nnc(-c4ccccc4)cc23)CC1", 6.96),
    ("CCn1c(-c2nonc2N)nc2c(C#CC(C)(C)O)nc(OC[C@@H](N)c3ccccc3)cc21", 19.7),
    ("CCn1c(-c2nonc2N)nc2cnc(Oc3cccc(NC(=O)c4ccc(OCCN5CCOCC5)cc4)c3)cc21", 29.3),
    ("NC(=O)c1ccc(-c2nc(-c3ccccn3)c(-c3ccc4c(c3)OCO4)[nH]2)cc1", 3.41),
    ("CC(=O)Nc1cccc(C#Cc2cncnc2Nc2ccc(OCc3cccc(F)c3)c(Cl)c2)n1", 5),
    ("COC(=O)Nc1nc2cc(Oc3ccc(NC(=O)Nc4cccc(C(=O)O)c4)cc3)ccc2[nH]1", 3.07),
    ("COc1ccc(COc2ccc(Cc3cnc(N)nc3N)cc2OC)cc1", 5.32),
    ("CCn1c(-c2nonc2N)nc2cncc(C(=O)N3CC[C@H](N)C3)c21", 29.5),
    ("CCn1c(-c2nonc2N)nc2cncc(C(=O)N3CCNCC3)c21", 7.17),
    ("CNC(=O)c1cncc(/C=C/c2c(Cl)cccc2Cl)c1", 14.7),
    ("COc1ccc(-c2nn3ncccc3c2-c2ccnc(Nc3ccc(Cl)c(C(F)(F)F)c3)n2)cc1", 3.98),
    ("CCn1c(-c2nonc2N)nc2ccncc21", 6.2),
    ("CCCN1CCC=C(c2ccc(Nc3nc(Nc4ccccc4C(N)=O)c4cc[nH]c4n3)c(C)c2)C1", 63.6),
    ("CC1=C(C(=O)Nc2ccc3[nH]ncc3c2)C(c2ccc(Cl)c(Cl)c2)CC(=O)N1 (configuration not stated)", 8.99),
    ("Cc1ccc(C(=O)NC2CCCCC2)cc1-c1ccc(C(=O)NCC2CC2)cc1", 3.31),
    ("Cc1cc(O)cc(C)c1/C=C/c1cncc(-c2nn[nH]n2)c1", 35.4),
]

====

Target: Phosphatidylinositol 4,5-bisphosphate 3-kinase catalytic subunit alpha isoform (Homo sapiens);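 further: values are mean inhibition figures from the GSK PKIS kinase panel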
Conditions: at 0.1 µM
Reported inhibition is given for each of the following compounds.
measurementName: inhibition

# querySmiles, experimentalResult
data = [
    ("COc1cc(C=NNc2ncnc3c2cnn3-c2ccccc2)ccc1O", "6.59%"),
    ("NC(=O)c1ccc(-c2nc(-c3ccccn3)c(-c3ccc4c(c3)OCO4)[nH]2)cc1", "1.4%"),
    ("COc1cc2ncn(-c3cc(OCc4ccccc4Cl)c(C(N)=O)s3)c2cc1OC", "0.86%"),
    ("CCc1cccc(NC(=O)Nc2ccc(Oc3ccc4nc(NC(=O)OC)[nH]c4c3)cc2)c1", "0.8%"),
    ("CCn1c(-c2nonc2N)nc2c(C#CC(C)(C)O)nc(OC[C@@H](N)c3ccccc3)cc21", "-3.76%"),
    ("CS(=O)(=O)CCNCc1nc(-c2ccc3ncnc(Nc4ccc(F)c(Cl)c4)c3c2)cs1", "1.55%"),
    ("c1cnn2ncc(-c3ccnc(Nc4ccc5c(c4)OCCO5)n3)c2c1", "7.25%"),
    ("CCn1c(-c2nonc2N)nc2cncc(C(=O)N3CCNCC3)c21", "5.78%"),
    ("Cc1cc(O)cc(C)c1/C=C/c1cncc(-c2nn[nH]n2)c1", "3.19%"),
    ("COc1cc(C)c(NC(=O)CN(C)C)cc1Nc1nc(Nc2cccc(F)c2C(N)=O)c2cc[nH]c2n1", "0.75%"),
]

====

Biological target: Macrophage-stimulating protein receptor (Homo sapiens) (UniProt Q04912);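 further: reported values are the mean percent inhibition of RON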
Sequence (Q04912 25-304 limits assumed): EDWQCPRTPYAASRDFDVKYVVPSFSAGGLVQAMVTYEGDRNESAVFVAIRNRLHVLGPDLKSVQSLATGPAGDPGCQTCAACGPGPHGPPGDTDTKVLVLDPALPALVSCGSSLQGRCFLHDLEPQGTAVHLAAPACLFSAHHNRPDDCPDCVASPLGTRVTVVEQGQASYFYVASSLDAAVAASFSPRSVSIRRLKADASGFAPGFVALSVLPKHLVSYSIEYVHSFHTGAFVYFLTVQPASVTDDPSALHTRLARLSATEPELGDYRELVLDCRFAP
Sequence (Q04912 310-1400 limits assumed): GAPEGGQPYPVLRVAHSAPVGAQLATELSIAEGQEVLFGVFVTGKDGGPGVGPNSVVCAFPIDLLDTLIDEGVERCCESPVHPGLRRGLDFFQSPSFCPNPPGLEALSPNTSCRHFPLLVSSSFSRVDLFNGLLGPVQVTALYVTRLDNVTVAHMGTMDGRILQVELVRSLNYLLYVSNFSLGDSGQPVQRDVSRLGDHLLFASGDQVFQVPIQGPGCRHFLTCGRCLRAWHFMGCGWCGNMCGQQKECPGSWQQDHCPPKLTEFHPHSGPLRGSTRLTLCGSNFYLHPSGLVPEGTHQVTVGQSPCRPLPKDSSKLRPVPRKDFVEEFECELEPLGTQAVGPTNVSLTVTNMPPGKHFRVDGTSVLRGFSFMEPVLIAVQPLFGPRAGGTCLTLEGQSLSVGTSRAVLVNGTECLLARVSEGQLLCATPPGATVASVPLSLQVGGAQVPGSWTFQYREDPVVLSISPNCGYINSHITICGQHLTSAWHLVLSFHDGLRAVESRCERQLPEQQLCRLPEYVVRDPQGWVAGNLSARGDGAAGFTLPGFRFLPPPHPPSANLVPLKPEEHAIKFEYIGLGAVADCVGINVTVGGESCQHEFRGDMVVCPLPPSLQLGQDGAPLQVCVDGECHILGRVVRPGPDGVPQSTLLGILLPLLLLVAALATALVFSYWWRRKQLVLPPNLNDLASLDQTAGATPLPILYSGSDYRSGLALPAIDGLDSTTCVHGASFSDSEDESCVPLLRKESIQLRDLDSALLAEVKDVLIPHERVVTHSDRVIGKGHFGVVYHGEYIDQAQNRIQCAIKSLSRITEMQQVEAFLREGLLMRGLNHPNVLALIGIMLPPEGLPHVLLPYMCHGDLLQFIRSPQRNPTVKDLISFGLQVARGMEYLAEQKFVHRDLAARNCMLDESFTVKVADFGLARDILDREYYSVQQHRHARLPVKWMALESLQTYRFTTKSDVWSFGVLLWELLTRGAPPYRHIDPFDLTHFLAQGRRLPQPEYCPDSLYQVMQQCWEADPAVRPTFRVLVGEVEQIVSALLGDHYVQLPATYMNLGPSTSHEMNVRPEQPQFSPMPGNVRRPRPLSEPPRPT
Conditions: at 0.1 µM

# querySmiles, inhibition
rows = [
    ("CCn1c(-c2nonc2N)nc2cncc(C(=O)N3CC[C@H](N)C3)c21", "2.92%"),
    ("Cc1cccc(-c2n[nH]cc2-c2ccc3ncccc3n2)n1", "3.7%"),
    ("CCn1c(-c2nonc2N)nc2c(C#CC(C)(C)O)nc(CN3CCCC3)cc21", "27.6%"),
    ("COc1cc(C)c(NC(=O)CN(C)C)cc1Nc1nc(Nc2cccc(F)c2C(N)=O)c2cc[nH]c2n1", "3.91%"),
    ("CS(=O)(=O)CCNCc1nc(-c2ccc3ncnc(Nc4ccc(F)c(Cl)c4)c3c2)cs1", "1.17%"),
    ("Nc1nc(-c2ccccn2)c(-c2ccc3ncccc3n2)s1", "3.66%"),
    ("CCc1cccc(NC(=O)Nc2ccc(Oc3ccc4nc(NC(=O)OC)[nH]c4c3)cc2)c1", "5.94%"),
    ("COc1cccc(-n2ncc3c(N/N=C/c4cccc(F)c4)ncnc32)c1", "7.02%"),
    ("CN(C)c1cc2c(Nc3ccc4nc(Cc5ccccc5)[nH]c4c3)ncnc2cn1", "7.08%"),
    ("CN1CCC(C(=O)Nc2n[nH]c3nnc(-c4ccccc4)cc23)CC1", "-1.52%"),
    ("O=C1NC(=O)C(c2cccc(Cl)c2)=C1Nc1ccc(O)c(Cl)c1", "-9.4%"),
    ("COc1cc2ncn(-c3cc(OCc4ccccc4Cl)c(C(N)=O)s3)c2cc1OC", "0.23%"),
    ("CS(=O)(=O)Nc1ccc(N/C=C2\\C(=O)Nc3ccccc32)cc1", "-3.2%"),
    ("CS(=O)(=O)CCNCc1ccc(-c2ccc3ncnc(Nc4ccc(OCc5cccc(F)c5)c(C(F)(F)F)c4)c3c2)o1", "3.73%"),
    ("Cn1cc(C=C2C(=O)Nc3cccnc32)c2ccccc21", "3.7%"),
    ("Fc1cccc(COc2ccc(Nc3ncnc4cc(-c5ccc[nH]5)sc34)cc2Cl)c1", "4.56%"),
    ("CCn1c(-c2nonc2N)nc2c(C#CC(C)(C)O)nc(OC[C@@H](N)c3ccccc3)cc21", "11.5%"),
    ("Cc1cc(O)cc(C)c1/C=C/c1cncc(-c2nn[nH]n2)c1", "3.43%"),
    ("c1cnn2ncc(-c3ccnc(Nc4ccc5c(c4)OCCO5)n3)c2c1", "4.39%"),
    ("NS(=O)(=O)c1ccc(N/N=C2\\C(=O)Nc3ccc(C(=O)NCCc4c[nH]cn4)cc32)cc1", "0.68%"),
]

Data provenance: ChEMBL document CHEMBL1961873
